Test: yeast display, Sf9 membrane polyspecificity reagent, FACS + sequencing; frameworks hold sequencing errors
observedProperty: polyreactivity (PSR sort gate)

// below: answered sequences
1. QVQLVESGGGLVQAGGSRRLSCAASGITFSRYAMGWYRQAPGKERELVAAITSSGGSTYYADSVKGRFTISRDNAKNTVYLQMNSLKPEDTAVYYCAATSYYTREQYYYWGQGTQVTVSS; high polyreactivity
2. QVQLVESGGGLVQAGGSLRLSCAASGRIFYRYAMGWYIQAPAKERELFAAITGSGGSTYYADSVKGRFTISRDNAKNTVYFQMNSLKPEDTAVYYCNAVERSAFRGVRFDYDYWGQGTQVTLSS; high polyreactivity
3. QDQHVESGGGLVQAGGSLRLSCAASGITIRTNAIGWYRQAPGKERELVAAITTNGGNTYYADSVKGRFTISRENAKNTVYLQMNSLKQEDTAVYYCNTATYVDSFPDPGDHWGQGTQVTVSS; low polyreactivity
4. QVQLVESGGGLVQAGGSLRLCCAASGFTFPYNGMGWYRQAPGKERELVASISWSGASTYYADSVKGRFTISRDNAKNTVYLQMNSLKPEDTAVYYCAADPGYYSWGCSQDDYWGQGTQVTVSS; low polyreactivity
5. QVQLVESGGGLVQAGGSLSLSCAASGRIFADNAMGWYRQSPGKESELVADITYSGGSTYYAESVKGRFTISRDNAKNTLYLQMNSLNPEDTAFYYCAKQCVDYWGQGTQVTVSS; low polyreactivity
6. QVQLVESGGGLDQAGGSLRLSCAASGSIFSHYAMGWYRQAPGKERELVAAISRSGGSTYYADSVKGRFTISRDNAKNTVYLQMNSLKPDDTAVYYCSKEGDSGYWFDYWGQGTQVTVSS; low polyreactivity

Exercise: If you can, please state the reported polyreactivity (PSR sort gate) value of QVQLVESGGGLVQAGGSLRLSCAASGRIFKYYTMVWYRQAPGKERELVAAINSRGGTTYYADSVKGRFTISRDNAKNTVYLQMNSLKPVDTAVYYCAIDRIRDAGYRGLHRFDYWGQGTQVTLSS .
Key: low polyreactivity

Exercise: If you can, please state the reported polyreactivity (PSR sort gate) value of QVQLVESGGGLVQAGGSLRLSCAASGSIFIGYAMGWYRQAPGKERELVAAITSGSITNYADSVKGRFTISRDNAKNTVYLQMNSLKPEDTAVYYCAADIYTYLGAYYIGYYWGQGTQVTVSS .
Key: low polyreactivity

* * *

Test: yeast display, Sf9 membrane polyspecificity reagent, FACS + sequencing; frameworks hold sequencing errors
observedProperty: polyreactivity (PSR sort gate)

1. QVQLVESGGALVQAGGSLRLSCAASGRIFRAYAMGWYRQAPGKERELVAAISRSGGSTYYADSVKGRFTISRDNAKNTVYLQMNSLKPEDTAVYYCAAEYYFIDTGEYDYWGQGTQVSVSS; high polyreactivity
2. QDQLVESGGGLVQAGGSLRLSCAASGIIFDDNTMGWYRQAPGKERELVAAISSSGGSTYYADSVKGRFTISRDNAKNTVYLQMNSLKPEDTAVYYCAAAVYYTYPYIVYRNYPEFDYRGQGTQVTVSS; low polyreactivity
3. QVQLVESGGGLVQAGGSLRLSCAASGSTFRSYAMGWYRQAPGKERELVAAISSSGSRTYYADSVKGRFTISRDNAKNTVYLQMNSLKPEDTAVYYCAADYYYNTKLDYWGQGTQVTVSS; high polyreactivity
4. QVQLVESGGGLVQAGGSLRLSSAASGFTFVINDMGWYRQAPGKEMELVADITSGGDTYYADSVKGRFTISRDNAKNTVYLQMNSLKPEDTAVYYCAADIYPDWIYLLYGYWGQGTQGTVSS; low polyreactivity

Each recorded value in this set is attributed to the nanobody polyreactivity screen of Harvey et al. (2022).
